So I've got a bunch of molecules here, and I need their melting point values.
Structures can show the parent of a compound that is named as a salt.

// solved cases for melting point follow
O=c1c2ccc3c(ccn3CCN3CCCC3)c2ccn1Cc1ccc(F)cc1 : 229 to 231 °C
CN(C)CCn1ccc2ccc3c(=O)n(Cc4ccccc4)ccc3c21 (as salt: hydrochloride) : 100 to 102 °C
NCCn1ccc2c3ccn(Cc4ccc(F)cc4)c(=O)c3ccc21 : 203 to 205 °C
NCCn1ccc2ccc3c(=O)n(Cc4ccccc4)ccc3c21 (as salt: hydrochloride) : 153 to 154 °C
CN(C)CCCn1ccc2c3ccn(Cc4ccc(F)cc4)c(=O)c3ccc21 : 49 to 51 °C

Below: the item to evaluate.
Lab note: measured melting point of CN(C)CCn1ccc2c3ccn(Cc4ccc(F)cc4)c(=O)c3ccc21 was 221 to 223 °C
